Measured self-aminoacylation accompanies every entry in the list below.
test system: biotinyl-Phe-oxazolone; assay: self-aminoacylation, catalytic enhancement (BFO) (fold over background); higher = more active; k-Seq, kA / k0A0; sequences stand for … in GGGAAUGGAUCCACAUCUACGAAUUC…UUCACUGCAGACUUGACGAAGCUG
Fewer inactive variants are shown than the library holds.
REPORTED_METRIC: self-aminoacylation

UUACUUCAAACAAUCUGUCUG [Fam1A.1 aminoacylation ribozyme variant]    3.15
CUACUUCAAACAAUCGGGCGG [Fam1A.1 aminoacylation ribozyme variant]    1.71
CUUCUUAAAACAAUCGGUCUG [Fam1A.1 aminoacylation ribozyme variant]    0.699
AUUAGCCUUGUCAUCGAGUGA [Fam2.1 aminoacylation ribozyme variant]    6.72
CUACUGCAAACAAUCGAUCUG [Fam1A.1 aminoacylation ribozyme variant]    0.699
CCAGACUUCAAGUAAUCGGUC [Fam1B.1 aminoacylation ribozyme variant]    11.5
UUUCACCUAGGUCAUCGAGUG [Fam2.2 aminoacylation ribozyme variant]    16.4
AUUCCCCUACGUCAUCGGGUG [Fam2.2 aminoacylation ribozyme variant]    127

====

Measured self-aminoacylation accompanies every entry in the list below.
system: biotinyl-Leu-oxazolone; experiment: self-aminoacylation, catalytic enhancement (BLO) (fold over background); higher = more active; k-Seq, kA / k0A0; sequences stand for … in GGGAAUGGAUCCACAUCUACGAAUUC…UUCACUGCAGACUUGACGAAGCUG
This sample holds only a part of the variants without activity.
REPORTED_METRIC: self-aminoacylation

CCACACAUCAAGCAAUCGAUC [Fam1B.1 aminoacylation ribozyme variant]    0.581
AUUCACCUAGGUGAUUGGGUG [Fam2.2 aminoacylation ribozyme variant]    3.06
AAGUUCGCUAAUAGCCGCAAG [Fam3.1 aminoacylation ribozyme variant]    1.38
CUUACCCUGGUCAUCGCGUGA [Fam2.1 aminoacylation ribozyme variant]    18.9
AUUCAUCUUGGUCAUCGGGUG [Fam2.2 aminoacylation ribozyme variant]    9.58
AUCCACCUAGGUCAUCUGGUG [Fam2.2 aminoacylation ribozyme variant]    3.74
AUAACCCUUGUCAUCGAGUGA [Fam2.1 aminoacylation ribozyme variant]    6.26
AUUACCCUGGUGAUCGAGUCA [Fam2.1 aminoacylation ribozyme variant]    0.741
GUCCACCUAGGUCAUCGGGUG [Fam2.2 aminoacylation ribozyme variant]    4.46

====

Measured self-aminoacylation accompanies every entry in the list below.
test system: biotinyl-Leu-oxazolone; experiment: self-aminoacylation, catalytic enhancement (BLO) (fold over background); higher = more active; k-Seq, kA / k0A0; sequences stand for … in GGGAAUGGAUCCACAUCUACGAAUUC…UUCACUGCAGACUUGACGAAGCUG
This sample holds only a part of the variants without activity.
REPORTED_METRIC: self-aminoacylation

AUCACCCUGGUCAUCCAGUGA [Fam2.1 aminoacylation ribozyme variant]    7.91
AAGUUUGCUCAUAGGCGCAAG [Fam3.1 aminoacylation ribozyme variant]    0.577
ACGUUUGCGAAUAGUCGCAAG [Fam3.1 aminoacylation ribozyme variant]    1.85
AUACACCUAGGGCAUCGGGUG [Fam2.2 aminoacylation ribozyme variant]    3.71
CUAUUUCAAACAUUCGGUCUG [Fam1A.1 aminoacylation ribozyme variant]    1.16
ACGUUUGCUAAUAGUCACAAG [Fam3.1 aminoacylation ribozyme variant]    1.15
CUACUUCGAACAAUAGGUCUG [Fam1A.1 aminoacylation ribozyme variant]    0.461
AAGUUUGCUAAUCGUGGCAAG [Fam3.1 aminoacylation ribozyme variant]    0.521
AUUUCCCUGAUCAUCGAGUGA [Fam2.1 aminoacylation ribozyme variant]    5.98
AAGUUUGCUAAUAGUUGCAUG [Fam3.1 aminoacylation ribozyme variant]    1.14
CCACUUCAAACAAUCGGUCCG [Fam1A.1 aminoacylation ribozyme variant]    1.59
AUUACCCUCGUCAGCGAGUGA [Fam2.1 aminoacylation ribozyme variant]    4.33
CUACUUGAAACAAUCGGACUG [Fam1A.1 aminoacylation ribozyme variant]    0.944
GUACUUCAAACAAUCUGUCUG [Fam1A.1 aminoacylation ribozyme variant]    1.45
CCACACUUCAAGGAAUCGGUG [Fam1B.1 aminoacylation ribozyme variant]    10.5
AAUCACCUAGGUCCUCGGGUG [Fam2.2 aminoacylation ribozyme variant]    5.07
GUUAACCUGGUCAUCGAGUGA [Fam2.1 aminoacylation ribozyme variant]    6.73
AUUUCCCUGGUGAUCGAGUGA [Fam2.1 aminoacylation ribozyme variant]    5.66
